Collected MIC values appear next to each entry.
# System: Klebsiella-Enterobacter (strain 4/71)
# Method: Example 10: in vitro M.I.C. of II, cephalosporins and 1:1 combinations
# Type: cell-based
# Experimental Context: Klebsiella-Enterobacter strain 4/71; read-out: M.I.C.
# Experimental: Tryptose phosphate broth, containing the appropriate concentrations of the compounds or of the combination of them, was inoculated with 0.5×10^4 -5×10^4 organisms of the various microorganisms tested and incubated overnight at 37° C. Minimum inhibitory concentrations (M.I.C.) were taken as the concentrations of the compounds or of the combination at which no visible growth occurred. […]
Give a bare numeral; the unit µg/mL is implied.

Enter recorded MIC with Klebsiella-Enterobacter (strain 4/71) for CC1=C(C(=O)O)N2C(=O)[C@@H](NC(=O)[C@H](N)c3ccccc3)[C@H]2SC1 here. 50

Using Klebsiella-Enterobacter (strain 4/71) as the test system, report measured MIC of O=C(Cc1cccs1)N[C@@H]1C(=O)N2C(C(=O)[O-])=C(C[n+]3ccccc3)CS[C@H]12 . 25

Report MIC from Klebsiella-Enterobacter (strain 4/71) testing of CC(=O)OCC1=C(C(=O)O)N2C(=O)[C@@H](NC(=O)CC#N)[C@H]2SC1 50

###

# System: Klebsiella-Enterobacter (strain 4/71)
# Method: Example 10: in vitro M.I.C. of II, cephalosporins and 1:1 combinations
# Type: cell-based
# Experimental Context: Klebsiella-Enterobacter strain 4/71; read-out: M.I.C.
Observable: MIC (mg/L)
Numeric only. Scale: mg/L

{"Compound": "[N-]=[N+]=NCC1=C(C(=O)O)N2C(=O)C(NC(=O)Cc3cccs3)C2SC1 (stereo not shown) [EPC 821/4II]", "Unit Name": "mg/L", "MIC": 100}

Next item in the queue.
Look up and report measured MIC (Klebsiella-Enterobacter (strain 4/71)) for the following compound: Cc1nnc(SCC2=C(C(=O)O)N3C(=O)[C@@H](NC(=O)Cn4cnnn4)[C@H]3SC2)s1 [Cephazoline] 12.5
